src = paper PMC7826789

- Tested on: PIK3CB;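 note: KINOMEscan scanMAX binding as percent activity remaining versus control; lower means stronger binding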
- Protocol conditions: Compound Concentration (nM):1000
Assay endpoint: Percent Control (%)
Just the number please, in %, no unit attached.

Use these answered entries as a reference point.
COc1cc(C)c(N(C)C(=O)CN(C)C)cc1Nc1nc(Nc2cccc(F)c2C(N)=O)c2cc[nH]c2n1: 100
CCc1ccc(Oc2nccc(-c3c(-c4ccc(F)cc4)ncn3C3CCNCC3)n2)cc1: 99

Quick check: Percent Control of Cl.O=C(Nc1ccc(Oc2ccc3[nH]c(NC(=O)c4ccco4)nc3c2)cc1)Nc1cc(C(F)(F)F)ccc1F [GW683134A] ? 100

Now consider NS(=O)(=O)c1ccc(Nc2ncc(-c3ccccc3)o2)cc1 [GW572399X] . 100

Now consider CCS(=O)(=O)c1ccc(OC)c(Nc2ncc(-c3cccc(F)c3)o2)c1 [GW621970X] . 100

Now consider COc1ccc2c(-c3ccnc(Nc4cccc(OC(F)(F)F)c4)n3)cnn2n1 [GW810372X] . 100

Now consider CC1=C(C(=O)Nc2ccc3[nH]ncc3c2)C(c2ccc3ccccc3c2)CC(=O)N1 (centres unmarked) [GSK270822A] . 70

Now consider COc1cc(N2CCN(C(C)C)CC2)ccc1Nc1nc(Nc2ccc(F)cc2C(=O)NC[C@@H](O)CO)c2cc[nH]c2n1 [GSK1392956A] . 96

Now consider C/C(Nc1ccc(S(N)(=O)=O)cc1)=C1/C(=O)Nc2ccccc21 [GW335962X] . 100

Now consider COc1ccc(COc2ccc(Cc3cnc(N)nc3N)cc2OC)cc1 [GW632580X] . 93

Now consider COc1cc(C=NNc2ncnc3c2cnn3-c2ccccc2)ccc1O [GW513184X] . 100
